- systemTested: CXCR4 (Homo sapiens)
- Construct: Nanoluc-CXCR4
- Sequence (P61073 whole entry): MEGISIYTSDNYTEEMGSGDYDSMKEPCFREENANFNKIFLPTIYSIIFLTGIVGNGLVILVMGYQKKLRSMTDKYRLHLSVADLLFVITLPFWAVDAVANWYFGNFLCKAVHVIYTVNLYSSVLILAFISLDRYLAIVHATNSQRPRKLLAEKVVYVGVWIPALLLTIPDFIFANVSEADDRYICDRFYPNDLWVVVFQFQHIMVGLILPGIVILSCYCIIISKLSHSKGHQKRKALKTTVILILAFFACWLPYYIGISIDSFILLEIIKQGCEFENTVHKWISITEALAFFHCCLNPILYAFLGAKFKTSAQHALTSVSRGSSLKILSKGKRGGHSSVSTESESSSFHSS
- assayName: NanoBRET competition binding against CXCL12-AF647 in transfected HEK293T cells; anti-IFN effect lost with CXCR4 siRNA
- Assay type: cell-based
valueType: pKi
As a rule, pKi stands for the negative log10 of the concentration, concentration in M.

Supply measured pKi of `NC(=NCc1ccc(Cl)cc1)SCCCc1cnc[nH]1` in your reply.
4.73
